# Assay Procedure: MTT (cell viability) test, induced cell death in SH-SY5Y cells
# Condition Details: human
Measured Parameter: viability at 200 µM

Q: Can you share its viability at 200 µM? I mean this compound: NCCc1cc(O)c(O)cc1O [6-hydroxydopamine, reference compound]
Result: ≥ 69%

----------
# Assay Procedure: MTT (cell viability) test, corticosterone-induced cell death in PC12 cells
# Format: cell-based
# Condition Details: rat
Measured Parameter: viability at 400 µM

Q: Can you share its viability at 400 µM? I mean this compound: C[C@]12C[C@H](O)[C@H]3[C@@H](CCC4=CC(=O)CC[C@@]43C)[C@@H]1CC[C@@H]2C(=O)CO [corticosterone, Corticosterone, reference compound]
Result: ≥ 55%

----------
# Assay Procedure: in vitro
# Condition Details: human, cell viability
Measured Parameter: viability at 400 µM

Q: Can you share its viability at 400 µM? I mean this molecule: OO [hydrogen peroxide, reference compound]
Result: ≥ 55%
